Thyroid hormone receptor alpha (Homo sapiens): reported pIC50 for various molecules.
Sequence (P10827 whole entry): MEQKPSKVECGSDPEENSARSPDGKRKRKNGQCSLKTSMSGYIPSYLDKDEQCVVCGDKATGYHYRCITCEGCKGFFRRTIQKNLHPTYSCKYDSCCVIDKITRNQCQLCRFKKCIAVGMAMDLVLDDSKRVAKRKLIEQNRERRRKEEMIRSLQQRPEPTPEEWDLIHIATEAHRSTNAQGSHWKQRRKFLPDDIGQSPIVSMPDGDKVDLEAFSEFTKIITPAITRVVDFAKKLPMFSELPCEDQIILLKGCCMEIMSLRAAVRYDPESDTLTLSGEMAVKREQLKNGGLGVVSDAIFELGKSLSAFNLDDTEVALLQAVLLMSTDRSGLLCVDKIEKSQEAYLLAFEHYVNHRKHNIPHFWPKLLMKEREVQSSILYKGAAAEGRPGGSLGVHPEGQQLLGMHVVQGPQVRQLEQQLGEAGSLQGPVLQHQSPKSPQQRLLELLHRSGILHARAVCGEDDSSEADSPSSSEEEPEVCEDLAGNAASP
pIC50: −log10 of the molar value.
Measurement Label: pIC50

In the examples that follow, each entry is paired with its recorded pIC50.
O=C(O)Cc1cc(Cl)c(Oc2ccc(O)c(-c3ccccc3)c2)c(Cl)c1	6.89
O=C(O)Cc1cc(Br)c(Oc2ccc(O)c(Cc3ccc(C(F)(F)F)cc3)c2)c(Br)c1	6.47

A: O=C(O)Cc1cc(Cl)c(Oc2ccc(O)c(C(=O)NCc3ccccc3)c2)c(Cl)c1
B: CC(C)c1cc(Oc2c(Br)cc3c(c2Br)CC(C(=O)O)N3)ccc1O (stereo not given)
-- ask So which one has the bigger pIC50 here, A or B ? State your choice using its label.
-- reply B
